biological target: Potassium/sodium hyperpolarization-activated cyclic nucleotide-gated channel 1 (Homo sapiens); assay: Inhibition of human HCN1 heterologously expressed in HEK-293 cells after 30 mins by VIPR assay
Measured IC50 of individual entries
Form entry: value (µM) — number only.

CCN(c1ccccc1)c1cc(NC)[n+](C)c(C)n1.[Cl-] | 0.158

# return recorded IC50 for input `CC(C)Oc1ccccc1C(=O)NCC1(N2CCN(C(C)C)CC2)CCCCC1`
0.251

# return recorded IC50 for input `CCOc1ccccc1C(=O)NCC1(N2CCN(C)CC2)CCCCC1`
0.126

# return recorded IC50 for input `CN1CCN(C2(CNC(=O)c3ccccc3F)Cc3ccccc3C2)CC1`
25.1

# return recorded IC50 for input `COc1cccc(C(=O)NCC2(N3CCN(C)CC3)Cc3ccccc3C2)c1`
63.1

# return recorded IC50 for input `CN1CCN(C2(CNC(=O)c3ccccc3Cl)Cc3ccccc3C2)CC1`
20

# return recorded IC50 for input `COc1ccccc1C(=O)NCC1(N2CCN(C)CC2)Cc2ccccc2C1`
1.26

# return recorded IC50 for input `CCOc1ccccc1C(=O)NCC1(N2CCN(C(C)C)CC2)Cc2ccccc2C1`
0.631

# return recorded IC50 for input `CCOc1ccccc1C(=O)NCC1(N2CCN(C3CCCC3)CC2)CCCCC1`
0.2

# return recorded IC50 for input `COc1ccccc1C(=O)NCC1(N2CCN(C)CC2)CCCCC1`
0.398

====

Measured Selectivity ratio of individual entries
species on record: Homo sapiens; test: Selectivity for human HCN1 over human HCN4
Returns: the value as a bare number; no unit string appended.

Sample records with Selectivity ratio:
CCOc1ccccc1C(=O)NCC1(N2CCN(C3CCC3)CC2)CCCCC1 | 10
CCOc1ccccc1C(=O)NCC1(N2CCN(C3CCCC3)CC2)CCCCC1 | 10

# return recorded Selectivity ratio for input `COc1ccccc1C(=O)NCC1(N2CCN(C(C)C)CC2)CCCCC1`
10

====

molecular target: Potassium/sodium hyperpolarization-activated cyclic nucleotide-gated channel 1 (Homo sapiens, UniProt O60741); test: Inhibition of human HCN1 heterologously expressed in HEK-293 cells after 30 mins by VIPR assay
Measured pIC50 of individual entries
Reminder that pIC50 is minus the log10 of a molar concentration.

COc1ccccc1C(=O)NCC1(N2CCN(C(C)C)CC2)CCCCC1 | 7.50
Cc1ccccc1C(=O)NCC1(N2CCN(C)CC2)CCCCC1 | 4.20
CCOc1ccccc1C(=O)NCC1(N2CCN(C3CCC3)CC2)CCCCC1 | 7.10
CN1CCN(C2(CNC(=O)c3ccccc3OCc3ccccc3)Cc3ccccc3C2)CC1 | 6.20

# return recorded pIC50 for input `CCOc1ccccc1C(=O)NCC1(N2CCN(C)CC2)CCCC1`
6.40

# return recorded pIC50 for input `CCOc1ccccc1C(=O)NCC1(N2CCN(C3CC3)CC2)CCCCC1`
7.30

# return recorded pIC50 for input COc1ccccc1C(=O)NCC1(N2CCN(C)CC2)CCc2ccccc2C1 (stereo unspecified)
5.80

# return recorded pIC50 for input `CN1CCN(C2(CNC(=O)c3ccccc3OC(F)(F)F)Cc3ccccc3C2)CC1`
4.60

====

Target: Potassium/sodium hyperpolarization-activated cyclic nucleotide-gated channel 1 (Homo sapiens, UniProt O60741)
Sequence (O60741 whole entry): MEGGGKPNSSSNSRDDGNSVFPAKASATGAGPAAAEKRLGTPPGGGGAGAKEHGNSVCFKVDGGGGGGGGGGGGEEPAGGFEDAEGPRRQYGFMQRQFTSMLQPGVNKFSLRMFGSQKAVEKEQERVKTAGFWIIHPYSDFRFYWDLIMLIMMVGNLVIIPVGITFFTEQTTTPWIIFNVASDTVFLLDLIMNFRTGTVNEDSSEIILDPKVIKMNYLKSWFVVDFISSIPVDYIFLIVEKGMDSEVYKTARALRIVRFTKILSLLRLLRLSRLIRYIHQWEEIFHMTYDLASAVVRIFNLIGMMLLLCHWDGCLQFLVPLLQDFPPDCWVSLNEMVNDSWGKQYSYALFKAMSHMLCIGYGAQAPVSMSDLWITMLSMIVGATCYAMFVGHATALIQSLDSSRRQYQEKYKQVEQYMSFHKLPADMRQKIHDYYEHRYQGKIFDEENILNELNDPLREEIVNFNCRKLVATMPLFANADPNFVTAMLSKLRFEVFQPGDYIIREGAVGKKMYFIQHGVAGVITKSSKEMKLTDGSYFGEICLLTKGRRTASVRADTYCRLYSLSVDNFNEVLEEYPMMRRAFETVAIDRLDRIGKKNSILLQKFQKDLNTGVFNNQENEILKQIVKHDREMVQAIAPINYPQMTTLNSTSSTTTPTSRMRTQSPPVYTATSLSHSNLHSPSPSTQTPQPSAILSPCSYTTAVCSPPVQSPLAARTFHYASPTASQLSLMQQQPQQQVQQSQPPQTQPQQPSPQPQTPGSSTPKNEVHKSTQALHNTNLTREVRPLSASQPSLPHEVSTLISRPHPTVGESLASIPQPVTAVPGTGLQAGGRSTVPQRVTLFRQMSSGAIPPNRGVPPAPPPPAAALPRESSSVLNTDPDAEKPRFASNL
Test: Inhibition of human HCN1 heterologously expressed in HEK-293 cells after 30 mins by VIPR assay
Measured IC50 of individual entries

CN1CCN(C2(CNC(=O)c3ccccc3Cl)CCCCC2)CC1 | > 200 µM
COc1ccccc1C(=O)NCCN1CCN(C)CC1 | > 200 µM

# return recorded IC50 for input `CN1CCN(C2(CNC(=O)c3ccccc3O)Cc3ccccc3C2)CC1`
> 200 µM
